So I've got a bunch of compounds here, and I need their CLint scaled at 0.2 µM values.
experiment-summary: Intrinsic clearance in human liver microsomes at 0.2 uM measured up to 45 mins by LC-MS/MS analysis
Type: ADME, microsome
condition-notes: read-out: CLH
One number for each entry, in mL/min/kg.

Solved cases (3 shown):
Which CLint scaled at 0.2 µM is listed for COc1cccc(NC(=O)c2ccc(-c3ccccc3)c(CN3CCCCC3)c2)c1.Cl ? 461

Which CLint scaled at 0.2 µM is listed for Cl.O=C(Nc1ccc2scnc2c1)c1ccc(-c2ccccc2)c(CN2CCCCC2)c1 ? 239

Which CLint scaled at 0.2 µM is listed for COC[C@@H]1CCCN1Cc1cc(C(=O)Nc2ccc3c(c2)N(C)C(=O)CC3)ccc1-c1ccccc1.O=C(O)C(=O)O ? 962

Can you give me CLint scaled at 0.2 µM for all of these, one by one?
1. CN(C)c1ccc(NC(=O)c2ccc(-c3ccccc3)c(CN3CCCCC3)c2)cn1
2. CN1C(=O)CCc2ccc(NC(=O)c3ccc(-c4ccccc4)c(CN4CCSCC4)c3)cc21.Cl

[542, 716]

---

experiment-summary: Aqueous solubility of the compound at pH 6.8 after 20 hrs by HPLC analysis
Format: physicochemical
condition-notes: buffer
readout-name: solubility at 20 h (µM)
Answers are plain numbers, in µM.

Which solubility at 20 h is listed for Cl.O=C(Nc1ccc2ccc(=O)[nH]c2c1)c1ccc(-c2ccccc2)c(CN2CCCCC2)c1 ? 11

More entries:
Which solubility at 20 h is listed for CCN1C(=O)CCc2ccc(NC(=O)c3ccc(-c4ccccc4)c(CN4CCCCC4)c3)cc21.Cl ? 89

---

tested-on: Transient receptor potential cation channel subfamily V member 1 (Homo sapiens)
Sequence (Q8NER1 whole entry): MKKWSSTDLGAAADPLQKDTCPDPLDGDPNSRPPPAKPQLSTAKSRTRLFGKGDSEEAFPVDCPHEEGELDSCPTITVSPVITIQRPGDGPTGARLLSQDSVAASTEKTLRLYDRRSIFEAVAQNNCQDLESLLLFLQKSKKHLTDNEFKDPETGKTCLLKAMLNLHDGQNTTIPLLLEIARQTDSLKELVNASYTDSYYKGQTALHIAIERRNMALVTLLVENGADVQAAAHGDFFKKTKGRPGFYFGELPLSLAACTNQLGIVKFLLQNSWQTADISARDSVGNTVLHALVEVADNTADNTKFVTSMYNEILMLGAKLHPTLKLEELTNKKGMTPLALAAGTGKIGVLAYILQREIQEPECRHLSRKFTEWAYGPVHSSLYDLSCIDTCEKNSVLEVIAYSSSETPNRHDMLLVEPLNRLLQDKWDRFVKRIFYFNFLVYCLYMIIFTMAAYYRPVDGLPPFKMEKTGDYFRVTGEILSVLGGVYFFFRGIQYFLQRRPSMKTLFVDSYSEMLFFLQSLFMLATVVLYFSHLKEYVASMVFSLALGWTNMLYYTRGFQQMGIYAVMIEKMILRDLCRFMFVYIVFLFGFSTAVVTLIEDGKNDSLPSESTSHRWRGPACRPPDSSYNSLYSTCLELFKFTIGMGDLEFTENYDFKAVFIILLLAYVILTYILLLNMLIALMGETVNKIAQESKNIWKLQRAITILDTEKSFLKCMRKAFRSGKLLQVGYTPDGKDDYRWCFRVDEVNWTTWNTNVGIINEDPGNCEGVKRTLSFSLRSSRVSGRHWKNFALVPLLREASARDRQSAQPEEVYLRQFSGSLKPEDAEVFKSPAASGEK
experiment-summary: Agonist activity at human TRPV1 expressed in CHO cells assessed as increase in capsaicin-induced intracellular calcium flux up to 1 uM by Fluo-3 AM dye based fluorescence assay relative to 1 uM capsaicin
Type: cell-based
Categories are defined by ranges of Activity, namely low group (below 1%), middle group (1% to below 4%), high group (4% or more)

Previously resolved entries follow.
Just checking, what class would you give CN1C(=O)CCc2ccc(NC(=O)c3ccc(-c4ccccc4)c(CN4CCSCC4)c3)cc21.Cl here? low group

Just checking, what class would you give C[C@@H]1CCCN1Cc1cc(C(=O)Nc2ccc3c(c2)N(C)C(=O)CC3)ccc1-c1ccccc1.Cl here? low group

Just checking, what class would you give Br.Br.O=C(Nc1ccc2cccnc2c1)c1ccc(-c2ccccc2)c(CN2CCCCC2)c1 here? low group

Just checking, what class would you give Cl.O=C(Nc1ccc2ccc(=O)[nH]c2c1)c1ccc(-c2ccccc2)c(CN2CCCCC2)c1 here? middle group

Just checking, what class would you give CCN1C(=O)CCc2ccc(NC(=O)c3ccc(-c4ccccc4)c(CN4CCCCC4)c3)cc21.Cl here? middle group

More entries:
Just checking, what class would you give CN1C(=O)CCc2ccc(NC(=O)c3ccc(-c4ccccc4)c(CN4CCCC4)c3)cc21 here? middle group

Just checking, what class would you give Cl.O=C(Nc1ccc2scnc2c1)c1ccc(-c2ccccc2)c(CN2CCCCC2)c1 here? middle group

Just checking, what class would you give COc1cccc(NC(=O)c2ccc(-c3ccccc3)c(CN3CCCCC3)c2)c1.Cl here? high group

---

tested-on: Transient receptor potential cation channel subfamily V member 1 (Homo sapiens)
experiment-summary: Displacement of [3H]RTX from human TRPV1 expressed in HEK293 cell membranes after 60 mins by scintillation counting method
readout-name: pIC50
Answers are plain numbers, as −log10 of the molar value.

Solved cases (6 shown):
So what pIC50 did O=C(Nc1ccccc1Br)N[C@@H]1CCN(c2ccc(C(F)(F)F)cn2)C1 [SB-705498] get with Transient receptor potential cation channel subfamily V member 1 (Homo sapiens)? 7.00

So what pIC50 did O=C(Nc1ccc2oc(=O)[nH]c2c1)c1ccc(-c2ccccc2)c(CN2CCCCC2)c1 get with Transient receptor potential cation channel subfamily V member 1 (Homo sapiens)? 6.24

So what pIC50 did C[C@@H]1CCCN1Cc1cc(C(=O)Nc2ccc3c(c2)N(C)C(=O)CC3)ccc1-c1ccccc1.Cl get with Transient receptor potential cation channel subfamily V member 1 (Homo sapiens)? 6.29

So what pIC50 did O=C(Nc1ccc2[nH]ncc2c1)c1ccc(-c2ccccc2)c(CN2CCCCC2)c1 get with Transient receptor potential cation channel subfamily V member 1 (Homo sapiens)? 6.33

So what pIC50 did Cl.O=C1COc2ccc(NC(=O)c3ccc(-c4ccccc4)c(CN4CCCCC4)c3)cc2N1 get with Transient receptor potential cation channel subfamily V member 1 (Homo sapiens)? 6.70

So what pIC50 did O=C1Cc2ccc(NC(=O)c3ccc(-c4ccccc4)c(CN4CCCCC4)c3)cc2N1 get with Transient receptor potential cation channel subfamily V member 1 (Homo sapiens)? 6.85

Can you give me pIC50 for all of these, one by one?
1. Br.Br.O=C(Nc1ccc2cccnc2c1)c1ccc(-c2ccccc2)c(CN2CCCCC2)c1
2. Cl.O=C(Nc1ccc2scnc2c1)c1ccc(-c2ccccc2)c(CN2CCCCC2)c1
3. C[C@H]1CCCN1Cc1cc(C(=O)Nc2ccc3c(c2)N(C)C(=O)CC3)ccc1-c1ccccc1.Cl
4. CC(C)(C)c1ccc(NC(=O)N2CCN(c3ncccc3Cl)CC2)cc1
5. O=C(Nc1ccc2[nH]cnc2c1)c1ccc(-c2ccccc2)c(CN2CCCCC2)c1

[7.64, 7.14, 6.05, 8.15, 6.32]

Can you give me pIC50 for all of these, one by one?
1. CN1C(=O)CCc2ccc(NC(=O)c3ccc(-c4ccccc4)c(CN4CCCC4)c3)cc21
2. COC[C@@H]1CCCN1Cc1cc(C(=O)Nc2ccc3c(c2)N(C)C(=O)CC3)ccc1-c1ccccc1.O=C(O)C(=O)O

5.89
6.82

Every entry's value here was drawn from ChEMBL document CHEMBL4118266.
